B1: HDAC6 (parent)
chain: KMKTRELHRESSNFDSIYICPSTF

Variants of: B1
assay_comment: protein stability index of a GFP-peptide fusion (GPS, HEK-293T) (PSI 1-6); higher = more stable;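 also: lentivirally expressed fusions sorted by FACS into six bins by GFP to DsRed ratio, PSI derived from sequencing read proportions per bin multiplied by bin number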
applied_conditions: c terminus: a fixed tail appended
attribute_measured: protein stability index
Give bare numbers.

Illustrative cases are given below, each with its answer.
residue_string	numeric_value
KMKTRELHRESSNFDSIYICPSKF	2.25
KMKTRELHRMSSNFDSIYICPSTF	2.62
KMKTRELHRESSNFDSIYICPSLF	2.21

Take each entry in turn and give its protein stability index.
1. KMKTRELHRESSNFDFIYICPSTF
2. KMKTRELHRESSNFDSQYICPSTF
3. KMKHRELHRESSNFDSIYICPSTF
4. KMKTRELHRESSNFDYIYICPSTF
5. KMPTRELHRESSNFDSIYICPSTF

Response given:
[2.08, 2.48, 1.95, 1.85, 2.15]

Take each entry in turn and give its protein stability index.
1. KMKTRELHRESSNHDSIYICPSTF
2. KMKTRELHRESSNFDSIYQCPSTF
3. KMKTRELHRESSNFDSIHICPSTF
4. SMKTRELHRESSNFDSIYICPSTF
5. KMKTRELHRESSNFDSIYICRSTF
6. KMKTFELHRESSNFDSIYICPSTF

Response given:
1: 2.88; 2: 3.2; 3: 2.41; 4: 2.3; 5: 1.78; 6: 1.94

Take each entry in turn and give its protein stability index.
1. KKKTRELHRESSNFDSIYICPSTF
2. KMGTRELHRESSNFDSIYICPSTF
3. KMKTRELHRESSNFDSFYICPSTF
4. KMKTRELHRESSFFDSIYICPSTF

Response given:
1. 2.91
2. 2.08
3. 1.85
4. 1.45
